Tested on: SR leukemia
Test: NCI-60 one-dose screen, 48 h (100 = growth as untreated, 0 = no growth, -100 = all killed)
Details: 10 µM unless noted
Compounds without any hit were thinned out: in the full panel of roughly 83,000, 20% have a hit.
Parameter Measured: growth (%)
Use % as the unit, but write only the number.

Solved cases (5 shown):
COc1cc(OC)c(/C=C/S(=O)(=O)Cc2ccc(OC)c(NC(=O)CCC(=O)NO)c2)c(OC)c1
14.2
O=C(O)c1cn(C2CC2)c2cc(N3CCN(C(=O)CN4C(=O)CSC4=O)CC3)c(F)cc2c1=O
99.3
COc1cc(Nc2c(C#N)cnn3cc(-c4cnn(CC(C)(C)O)c4)cc23)ccc1Cl
24.3
C/C(=N\O)[C@H]1C[C@]23CC[C@]4(C)[C@H](CC[C@@H]5[C@@]6(C)CC/C(=N/O)C(C)(C)[C@@H]6CC[C@]54C)[C@H]2[C@H](C)C1(C)OC3
98.7
COc1ccc(-n2c(/C=C3\C(=O)Nc4ccccc43)ccc2CO)cc1
105

**Query** What value of measured growth is listed for Fc1ccc(-c2cc3nc(C(Cl)Cl)nc(-c4ccco4)n3n2)cc1 ?
**Result** 64.8

**Query** Given Cc1ccc(CSc2nc(-c3ccc(Cl)cc3)c(C#N)c(N3CCOCC3)n2)cc1 , state its recorded growth.
**Result** 85.6

**Query** Fill in the blank: the reported growth of COc1cc(-c2nn(C(C)(C)C)cc2-c2ccnc(NCCCNS(=O)(=O)c3ccccc3)n2)ccc1Cl is ____.
**Result** 56

**Query** What growth value was documented for this compound, CCN(CC)CCn1c2ccc(O)cc2c2sc3cc(OC)ccc3c(=O)c21 ?
**Result** -13.4

---

// reported growth for each item listed
System: SR leukemia
Test: NCI-60 one-dose screen, 48 h (100 = growth as untreated, 0 = no growth, -100 = all killed)
Details: 10 µM unless noted
This is part of a sample that, as a whole, favours compounds with a hit. Of some 83,000 tested, about 20% had one in any assay.
State just the number; it will be interpreted in %.

Brc1ccccc1/C=N/Nc1nc(N/N=C/c2ccccc2Br)nc(N2CCOCC2)n1
63.9

**Query** Form field: reported growth of Cc1ccc2c(c1)C(=O)/C(=C/c1cccc(F)c1)S2
**Result** 101

**Query** What does the record list as growth for CC(=O)Nc1cccc(Nc2nc(N[C@H](C)c3ccccc3)c3ccccc3n2)c1 ?
**Result** -7.47

**Query** Param item = NS(=O)(=O)c1ccc(Nc2cc(-c3ccccc3)nc(SCC(=O)c3ccccc3)n2)cc1 ; retrieve measured growth.
**Result** 101

**Query** I'd like to know its growth. The molecule in question is CC(C)(C)CC(C)(C)n1nnnc1C(Nc1nccs1)c1cc2cccc3ccc4cccc1c4c32 (stereo not given)
**Result** 96.6

---

Test system: M14 melanoma
Experiment: NCI-60 one-dose screen, 48 h (100 = growth as untreated, 0 = no growth, -100 = all killed)
Conditions: 10 µM unless noted
The panel holds about 83,000 compounds, 20% with a hit somewhere; the sample as a whole holds those more often.
Categories are defined by ranges of growth, namely L (below 20%), M (20% to below 90%), H (90% or more)

**Query** # bin lookup: classify CC(=O)c1cc(C(=O)N2c3ccccc3Sc3ccccc32)n2ccc3ccccc3c12 by its growth
**Result** M

**Query** Note: place this molecule into its band. Item: CC[C@@H](CO)Nc1ccc2ncc(C#Cc3cncc(C(=O)Nc4ccc(CN5CCN(C)CC5)c(C(F)(F)F)c4)c3)n2n1
**Result** L

**Query** # bin lookup: classify CC(C)(C)c1ccc(C(=O)Nc2sc3c(c2C(N)=O)CC/C(=N\O)C3)cc1 by its growth
**Result** M

**Query** Lab log: Cc1ccc2c(c1)C(=O)/C(=C/c1cccc(F)c1)S2 — assign growth category
**Result** H

**Query** Note: place this molecule into its band. Item: O=C(c1ccc(O)c(C(=O)N2Cc3ccc(OCCC[P+](c4ccccc4)(c4ccccc4)c4ccccc4)cc3C2)c1)N1Cc2cccc(F)c2C1
**Result** H

**Query** Assign a bin to CC(C)(C)n1nnnc1C(Nc1cccc2c1OCO2)c1cc2cccc3ccc4cccc1c4c32 (configuration not stated)
**Result** H

**Query** Which class holds COc1ccc(-c2nc3cc(Cl)c(Cl)cc3n2CC(=O)N=Nc2c(O)[nH]c3ccc(OC)cc23)cc1 ?
**Result** M

**Query** Sort into band: Nc1ncc(-c2ccc(NS(=O)(=O)c3ccc(Cl)c(Cl)c3)cc2)[nH]1
**Result** H

**Query** For this molecule, which bin applies? CCNC(=O)N1CCc2cc(OC)c(OCCc3ccc(OC)cc3)cc2C1c1ccc([N+](=O)[O-])cc1C (configuration not stated)
**Result** M

**Query** Category lookup for the molecule Cc1cccc(/C=C/C(=O)Nc2ncc(Cc3cccc(C)c3)s2)c1
**Result** L

**Query** Category of N#Cc1cccc(/C(N)=N/C(N)=N/c2nc3ccccc3s2)c1 , please.
**Result** M

**Query** Field: class (growth) — entry: CN1CCN(c2nc(-c3csc(-c4ccccc4)n3)cc3ccccc23)CC1
**Result** L
